Assay: Quantitative High-Throughput drug screen in 47 multiple myeloma cell lines against the NCATS MIPE library collection: OPM1_PLB cell viability assay (AID 1918989); also: nearly all actives have a fitted effect of over 40% in size
Conditions: CellTiter-Glo, 48 h; series mostly up to 45.8 µM
Results filed as inconclusive are left out. Activity calls are given as the source filed them. Calls follow the shape of the dose curve; as a rule, active = well fitted cell-killing curve with a large enough effect; inconclusive = small, poorly fitted or top-dose-only effect, or effect the other way; inactive = no such curve, though single readings can be large or run the other way.
Mark one answer only. Choices: Y = active, N = inactive

// below: answered compounds
{"columns": ["COMPOUND", "ASSIGNED LABEL"],
 "data": [
  ["CN1CCN(c2ncc(-c3cc(Cl)cc(Cl)c3Cl)c(N)n2)CC1", "N"],
  ["CC(=O)OCC(=O)[C@@]1(O)CC[C@H]2[C@@H]3CCC4=CC(=O)C=C[C@]4(C)[C@@H]3[C@@H](O)C[C@@]21C", "N"],
  ["CN1CC(=O)NC1=NC(=O)Nc1cccc(Cl)c1", "Y"]
]}

Query block: Could you check what this test reported for CCCCC(C)(C)[C@H](O)C=C[C@H]1[C@H](O)CC(=O)[C@H]1CC=CCCCC(=O)O ?
Result block: Y

Query block: Could you check what this test reported for CCC(=O)OCC(=O)[C@@]1(OC(=O)CC)[C@@H](C)C[C@@H]2[C@H]3CCC4=CC(=O)C=C[C@]4(C)[C@@]3(F)[C@@H](O)C[C@@]21C ?
Result block: Y

Query block: Could you check what this test reported for COC(=O)Nc1ccc(-c2nc(N3CCOCC3)c3cnn(C4CCN(C(=O)OC)CC4)c3n2)cc1 ?
Result block: Y

Query block: Could you check what this test reported for O=C1NC(=O)C(=Cc2ccc(-c3ccc(F)cc3O)o2)S1 ?
Result block: Y

----------
System: HeLa
Experiment: Primary qHTS to identify gynecologic anti-cancer compounds using libraries of approved drugs and bioactive compounds (AID 1345084); also: nearly all actives have a fitted effect of over 55% in size
Settings: Gynecologic cancer cell panel viability, ATPlite luminescence, 48 h; series mostly up to 57.5 µM
Inconclusive results are not listed. Active and inactive are the calls of the source. Calls come from the whole dose curve; as a rule, active = well fitted cell-killing curve with a large enough effect; inconclusive = small, poorly fitted or top-dose-only effect, or effect the other way; inactive = flat fitted curve, though single readings scatter.
READOUT NAME: outcome

{"columns": ["MOLECULE", "STUDY TARGET", "RESULT"],
 "data": [
  ["CC(C)(O)CC(=O)NCCn1ccc2ncnc(Nc3ccc(Oc4cccc(C(F)(F)F)c4)c(Cl)c3)c21", "HeLa", "inactive"],
  ["CC1(C)CC(=O)c2c(C(F)(F)F)nn(-c3ccc(C(N)=O)c(NC4CCC(O)CC4)c3)c2C1 (stereo not drawn)", "HeLa", "inactive"],
  ["CCCCC[C@H](O)C=C[C@H]1[C@H](O)CC(=O)[C@H]1CC=CCCCC(=O)O", "HeLa", "inactive"]
]}

----------
Assay: qHTS of pediatric cancer cell lines to identify multiple opportunities for drug repurposing: Primary screen for DAOY cells (AID 1347090); also: nearly all actives have a fitted effect of over 55% in size; also: potency is read from the fitted curve at half-maximal effect
Conditions: DAOY medulloblastoma viability, CellTiter-Glo luminescence, 48 h; series mostly up to 46 µM
Method: Drug repurposing or repositioning has been offered as a strategy for drug development in oncology programs. […] [1] Shen, M et al. Quantitative high-throughput phenotypic screening of pediatric cancer cell lines identifies multiple opportunities for drug repurposing. […] Cells were assayed in growth media at a density of 500-1,000 cells/well. […] After a 15 min incubation at room temperature, samples were analyzed for luminescence intensity using a ViewLux High-throughput CCD imager equipped with clear filters.
Results filed as inconclusive are left out. Calls of active or inactive are those of the source. Calls come from the whole dose curve; as a rule, active = well fitted cell-killing curve with a large enough effect; inconclusive = small, poorly fitted or top-dose-only effect; inactive = flat fitted curve, though single readings scatter.
READOUT NAME: Potency

Consider the worked cases shown below.
{"columns": ["COMPOUND", "Potency"],
 "data": [
  ["O=C(c1ccc(C=Cc2n[nH]c3ccccc23)cc1)N1CCNCC1", "inactive"],
  ["CN1CCC(COc2cnc(-c3cccc(Cn4nc(-c5cccc(C#N)c5)ccc4=O)c3)nc2)CC1", "23.5 µM (active)"],
  ["CNC(=O)c1cc(Oc2ccc(NC(=O)Nc3ccc(Cl)c(C(F)(F)F)c3)c(F)c2)ccn1", "5.9 µM (active)"],
  ["C=CC(=O)Nc1cccc(Sc2nc(Nc3ccc(N4CCN(C)CC4)cc3)ncc2Cl)c1", "2.35 µM (active)"],
  ["COc1cc(F)c(C(C)C)cc1-c1ccc(C(F)(F)F)cc1CN1C(=O)O[C@H](c2cc(C(F)(F)F)cc(C(F)(F)F)c2)[C@@H]1C", "inactive"]
]}

Query block: Bench note: what Potency did CN1c2ccccc2C(=O)N2CCc3c([nH]c4ccccc34)C21 (centres undefined) show?
Result block: inactive

Query block: Bench note: what Potency did COc1ccc2nc3cc(Cl)ccc3c(Nc3cc(CN4CCCC4)c(O)c(CN4CCCC4)c3)c2n1 show?
Result block: inactive

Query block: Bench note: what Potency did N#Cc1c(N(CC(=O)O)CC(=O)O)sc(C(=O)O)c1CC(=O)O show?
Result block: inactive

Query block: Bench note: what Potency did CC(C)(F)C[C@H](N[C@@H](c1ccc(-c2ccc(S(C)(=O)=O)cc2)cc1)C(F)(F)F)C(=O)NC1(C#N)CC1 show?
Result block: inactive

----------
Experiment: Quantitative High-Throughput drug screen in 47 multiple myeloma cell lines against the NCATS MIPE library collection: LP1_DSMZ cell viability assay (AID 1918982); also: nearly all actives have a fitted effect of over 35% in size
Conditions: LP1 myeloma viability, CellTiter-Glo ATP luminescence, 48 h; series mostly up to 45.8 µM
Results filed as inconclusive are left out. Active and inactive are the calls of the source. Calls come from the whole dose curve; as a rule, active = well fitted cell-killing curve with a large enough effect; inconclusive = small, poorly fitted or top-dose-only effect, or effect the other way; inactive = no such curve, though single readings can be large or run the other way.
Mark one answer only. Choices: TRUE = active, FALSE = inactive

{"columns": ["COMPOUND", "ASSIGNED LABEL"],
 "data": [
  ["Cc1ccc2c(=O)c3cccc(CC(=O)O)c3oc2c1C", "FALSE"],
  ["CNC(=O)[C@H](CC1=CN=C2C=CCC=C12)NC(=O)[C@@H](CC(=O)NO)CC(C)C", "FALSE"],
  ["C[C@]12C=CC(=O)C=C1CC[C@@H]1[C@@H]2[C@@H](O)C[C@@]2(C)[C@@H]1CC[C@]2(O)C(=O)CO", "TRUE"],
  ["OC[C@H]1O[C@@H](O[C@H]2[C@@H](O)[C@@](O)(CO)O[C@@H]2CO)[C@H](O)[C@@H](O)[C@@H]1O", "FALSE"],
  ["OC[C@H]1O[C@@H](OCCc2ccc(O)cc2)[C@H](O)[C@@H](O)[C@H]1O", "FALSE"]
]}

Let us examine a further case.
Query block: Could you check what this test reported for Cc1cnc(-c2cc(N3CCN(C(=O)CCS(C)(=O)=O)CC3)ncc2Cl)c(C)c1 ?
Result block: FALSE

----------
Assay: Quantitative High-Throughput drug screen in 47 multiple myeloma cell lines against the NCATS MIPE library collection: PE2_PLB cell viability assay (AID 1919869); also: nearly all actives have a fitted effect of over 35% in size
Settings: PE2_PLB myeloma cells viability, ATP luminescence, 48 h; series mostly up to 45.8 µM
Excerpt: PI: Beverly A. Mock Ph.D. Laboratory of Cancer Biology and Genetics, Center for Cancer Research, National Cancer Institute, National Institute of Health, Bethesda, Maryland […] 5; Detector; 425V; Luminescence; Viewlux PerkinElmer. […] 1. […] Briefly, the corresponding myeloma cell lines were screened in 1,536-well plates with 500 cells, 5-uL per well for inhibition of cell viability (assessed by measuring ATP levels with CellTiterGlo). […]
Inconclusive results are not listed. The source made the active and inactive calls. Calls come from the whole dose curve; as a rule, active = well fitted cell-killing curve with a large enough effect; inconclusive = small, poorly fitted or top-dose-only effect, or effect the other way; inactive = no such curve, though single readings can be large or run the other way.
Mark one answer only. Choices: True (active), False (inactive)

// below: answered molecules
{"columns": ["MOLECULE", "ASSIGNED LABEL"],
 "data": [
  ["C[C@]12CC[C@@H]3c4ccc(O)cc4CC[C@H]3[C@H]1[C@@H](O)[C@@H](O)[C@H]2O", "False"],
  ["CC(=O)Nc1cccc(-n2c(=O)n(C3CC3)c(=O)c3c(Nc4ccc(I)cc4F)n(C)c(=O)c(C)c32)c1", "True"],
  ["O=C(O)CCC=CCC[C@@H]1[C@H](N2CCCCC2)[C@@H](O)C[C@@H]1OCc1ccc(-c2ccccc2)cc1", "False"],
  ["CC[C@H](CC#N)OC(=O)N[C@@H](C)c1cccc(NC(=O)Nc2ccc(-c3cnco3)c(OC)c2)c1", "True"],
  ["CN1CCN(c2ncc(-c3cc(Cl)cc(Cl)c3Cl)c(N)n2)CC1", "True"]
]}

Query block: Could you check what this test reported for COc1cc2nc(-c3cc(F)ccc3O)nc(N[C@@H]3CNC[C@@H]3C(C)(C)O)c2cc1OC ?
Result block: True

Query block: Could you check what this test reported for CCN1C[C@H](C)n2c(c(O)c3c(=O)n(Cc4ccc(F)c(Cl)c4)nc(C(=O)NC)c32)C1=O ?
Result block: False

----------
Assay: Quantitative High-Throughput drug screen in 47 multiple myeloma cell lines against the NCATS MIPE library collection: KMM1_JCRB cell viability assay (AID 1918960); also: nearly all actives have a fitted effect of over 30% in size; also: potency is read from the fitted curve at half-maximal effect
Settings: KMM1 myeloma viability, CellTiter-Glo ATP luminescence, 48 h; series mostly up to 45.8 µM
Records with an inconclusive call do not appear. The source made the active and inactive calls. The call rests on the fitted dose curve; in most records, active means well fitted cell-killing curve with a large enough effect; inconclusive means small, poorly fitted or top-dose-only effect, or effect the other way; inactive means no such curve, though single readings can be large or run the other way.
READOUT NAME: Potency

{"columns": ["SMILES STRING", "Potency"],
 "data": [
  ["CC(C)(C)c1nc(-c2cccc(NS(=O)(=O)c3c(F)cccc3F)c2F)c(-c2ccnc(N)n2)s1", "3.32 µM (active)"],
  ["CNC(=O)[C@H](CC1=CN=C2C=CCC=C12)NC(=O)[C@@H](CC(=O)NO)CC(C)C", "0.148 µM (active)"],
  ["CC(O)=C(C#N)C(=O)Nc1ccc(C(F)(F)F)cc1", "inactive"],
  ["NC(N)=Nc1nc(CSCCC(N)=NS(N)(=O)=O)cs1", "inactive"],
  ["Fc1ccc(CNc2ncnc3ccc(F)cc23)cc1", "4.18 µM (active)"],
  ["C[C@@H]1[C@H](C)CC[C@]2(C(=O)O)CC[C@]3(C)C(=CC[C@@H]4[C@@]5(C)CC[C@H](O)C(C)(C)[C@H]5CC[C@]43C)[C@@H]12", "inactive"],
  ["O=C(c1ccc(C=Cc2n[nH]c3ccccc23)cc1)N1CCNCC1", "5.26 µM (active)"],
  ["Cc1c(C(=O)Nc2ccc(N3C[C@@H](C)O[C@@H](C)C3)nc2)cccc1-c1ccc(OC(F)(F)F)cc1", "1.18 µM (active)"]
]}

// moving on: another record for Potency
Query block: Bench note: what Potency did O=C(CO)N1CCC(c2[nH]nc(-c3ccc(Cl)cc3)c2-c2ccncn2)CC1 show?
Result block: inactive
